Reported CC50 values are given for each entry in this list.
# measurementDescription: in vitro
# conditionParameters: human

CC1(C)CC[C@]2(C(=O)O)CC[C@]3(C)C(=CC[C@@H]4[C@@]5(C)CC[C@H](O[C@@H]6O[C@H](C(=O)O)[C@@H](O)[C@H](O)[C@H]6O)C(C)(C)[C@@H]5CC[C@]43C)[C@@H]2C1 [NCGC00384528-01, Calenduloside E] : > 30 µM
COc1cc2c(c(OC)c1CC=C(C)C)C[C@H](c1ccc(O)c(CC=C(C)C)c1O)CO2 : > 30 µM
C=C1CCC2[C@](C)(CCC[C@]2(C)C(=O)O)[C@H]1CC/C(C)=C/C(=O)OC (some centres unmarked) : > 30 µM
Cc1[nH]c2ccccc2c1C1=C(NCCc2ccc(F)cc2)C(=O)N(C)C1=O : > 30 µM

CC50 measured on O=C(O)Cc1cc(I)c(Oc2ccc(O)c(I)c2)c(I)c1 = > 30 µM
